# runDescription: inhibitors of GR-EGFP nuclear translocation, primary screen, dynein cargo transport inhibitor project, imaging, high-content, 3617.4 mouse cells (AID 1381)
# experimentalSetup: at 20 µM, stronger effect = lower value, stimulated with dexamethasone, 1 µM
In all, about 220,000 compounds went through this assay and about 1,000 (0.45%) were called active. Shown is part of a subset that was picked to be rich in actives.
Each item that follows carries a reported z-score.
# output: bare number, no unit

Previously resolved entries follow.
O=C(NCc1cccnc1)c1cccc(-c2cc3ccccc3oc2=O)c1
-0.31
O=C1/C(=C/c2ccc3c(c2)OCO3)CCC/C1=C\c1ccc2c(c1)OCO2
0.645
Nc1ccccc1SC(C[N+](=O)[O-])c1ccccc1 (stereo unspecified)
-4.57

z-score measured on "Cc1ccc(/C=N/NC(=S)NC2CCCCC2)o1" = -0.738

Given item CC(=O)N/C(=C\c1ccc(F)cc1)C(=O)NC(Cc1ccccc1)C(=O)O (stereo unspecified) , the value recorded as its z-score is -0.458

What the record says about "Brc1ccc2c(c1)[C@H]1OCC[C@H]1[C@@H](c1cccs1)N2" : z-score is 1.51

Where these numbers come from: PubChem BioAssay AID1381
